Values compiled from patent US11498903B2.

# target: human APJ receptor (Homo sapiens)
# Construct: expressed in transfected cells
# Sequence (P35414 1-380): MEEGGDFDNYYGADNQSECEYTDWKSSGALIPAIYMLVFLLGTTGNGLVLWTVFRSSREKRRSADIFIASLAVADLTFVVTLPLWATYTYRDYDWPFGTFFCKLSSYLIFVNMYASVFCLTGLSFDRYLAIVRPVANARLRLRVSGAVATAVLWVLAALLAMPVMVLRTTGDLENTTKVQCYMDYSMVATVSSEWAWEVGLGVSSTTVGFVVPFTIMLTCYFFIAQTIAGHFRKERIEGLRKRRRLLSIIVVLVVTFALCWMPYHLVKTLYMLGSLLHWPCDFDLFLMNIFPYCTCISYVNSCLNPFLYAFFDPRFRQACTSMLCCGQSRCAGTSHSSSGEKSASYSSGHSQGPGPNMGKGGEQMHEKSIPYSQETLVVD
# method-description: Intracellular cAMP accumulation assay (APJ hcAMP, HTRF)
# Format: cell-based
# stated-conditions: Table 1; HEK293 cells stably expressing human APJ receptor; inhibition of forskolin-mediated cAMP production; read-out: APJ hcAMP EC50
pEC50: −log10 of the molar value.
result-type: pEC50

The cases that follow already have their pEC50 on record.
molecule	result
CC(C)CC(NC(=O)c1ccc(-c2cc(Cl)ccc2-c2nc3ccccc3[nH]2)c(C(=O)O)c1)c1ccccc1 (racemic) [Example 210]	> 8.00
CCC[C@H](NC(=O)c1ccc(-c2c(Cl)cccc2-c2nc3ccccc3[nH]2)c(C(=O)O)c1)c1cccc(Cl)c1 (single isomer, unassigned) [Example 185]	> 8.00
CCC[C@@H](NC(=O)c1ccc(-c2cc(Cl)ccc2-c2nc3cc(C(C)C)ccc3[nH]2)c(C(=O)O)c1)c1ccccc1 [Example 48]	> 8.00

# pEC50 (molecule: CCC[C@@H](NC(=O)c1ccc(-c2ccc(F)cc2-c2nc3ccccc3[nH]2)c(C(=O)O)c1)c1ccccc1 [Example 34] ) is > 8.00

Measured pEC50, COc1cc2[nH]c(-c3cccc(Cl)c3-c3ccc(C(=O)NC(C)C)cc3C(=O)O)nc2cc1F [Example 109] : 7.00 to 8.00

pEC50 in this record for O=C(NC(c1ccc(Cl)cc1)C1CC1)c1ccc(-c2c(Cl)cccc2-c2nc3ccccc3[nH]2)c(C(=O)O)c1 (single isomer, unassigned) [Example 224] : > 8.00

For COc1cc2[nH]c(-c3cccc(Cl)c3-c3ccc(C(=O)NCCC(C)C)cc3C(=O)O)nc2cc1F [Example 114] the molecule record lists pEC50 as > 8.00

What the record says about CCCC(NC(=O)c1ccc(-c2cc(Cl)ccc2-c2nc3cc(C(C)(C)C)ccc3[nH]2)c(C(=O)OC)c1)c1ccccc1OC (stereo not shown) [Example 203] : pEC50 is 7.00 to 8.00

For record CCCC(NC(=O)c1ccc(-c2c(Cl)cccc2-c2nc3ccccc3[nH]2)c(C(=O)O)c1)c1ccc(Cl)cc1OC (single isomer, unassigned) [Example 164] the listed pEC50 is > 8.00

Query COc1cc2[nH]c(-c3cccc(Cl)c3-c3ccc(C(=O)N4CCc5ccccc5C4)cc3C(=O)O)nc2cc1F [Example 113] yields pEC50 of > 8.00
